- Experiment description: Hemolytic activity in male Sprague-Dawley rat erythrocytes at 100 uM incubated for 1 hr by absorbance based method relative to control
- Assay type: toxicity, cell-based, Erythrocyte
- Condition context: read-out: Activity
Non-standard residues stand in square brackets, D forms with d. Residues, ends and D or L forms follow the SMILES beside them. Gly(N(CH2)2(3-indolyl)) = O=C(O)CNCCc1c[nH]c2ccccc12; Nspe = C[C@H](NCC(=O)O)c1ccccc1; Nphe = O=C(O)CNCc1ccccc1; Nlys = NCCCCNCC(=O)O

Compound	hemolysis at 1 h, 100 µM
C[C@@H](c1ccccc1)N(CC(N)=O)C(=O)CN(CCCCN)C(=O)CN(CCCCN)C(=O)CN(C(=O)CN(C(=O)CN(CCCCN)C(=O)CN(C(=O)CN(C(=O)CN(CCCCN)C(=O)CN(CCc1c[nH]c2ccccc12)C(=O)CN(CCc1c[nH]c2ccccc12)C(=O)CNCCCCN)[C@@H](C)c1ccccc1)[C@@H](C)c1ccccc1)[C@@H](C)c1ccccc1)[C@@H](C)c1ccccc1	11.1%
C[C@@H](c1ccccc1)N(CC(N)=O)C(=O)CN(C(=O)CN(CCCCN)C(=O)CN(Cc1ccccc1)C(=O)CN(Cc1ccccc1)C(=O)CN(CCCCN)C(=O)CN(Cc1ccccc1)C(=O)CN(Cc1ccccc1)C(=O)CN(CCCCN)C(=O)CN(CCc1c[nH]c2ccccc12)C(=O)CN(CCc1c[nH]c2ccccc12)C(=O)CN(CCCCN)C(=O)[C@H](Cc1c[nH]cn1)NC(=O)CNC(=O)CN)[C@@H](C)c1ccccc1 (H-GGH[Nlys][Gly(N(CH2)2(3-indolyl))][Gly(N(CH2)2(3-indolyl))][Nlys][Nphe][Nphe][Nlys][Nphe][Nphe][Nlys][Nspe][Nspe]-NH2)	40.2%
C[C@@H](c1ccccc1)N(CC(=O)N(CCCCN)CC(=O)N(CC(=O)N(CC(=O)N(CCCCN)CC(=O)N(CC(=O)N(CC(=O)N(CCCCN)CC(=O)N(CCc1c[nH]c2ccccc12)CC(=O)N(CCc1c[nH]c2ccccc12)CC(N)=O)[C@@H](C)c1ccccc1)[C@@H](C)c1ccccc1)[C@@H](C)c1ccccc1)[C@@H](C)c1ccccc1)C(=O)CN(C(=O)CNCCCCN)[C@@H](C)c1ccccc1 (H-[Nlys][Nspe][Nspe][Nlys][Nspe][Nspe][Nlys][Nspe][Nspe][Nlys][Gly(N(CH2)2(3-indolyl))][Gly(N(CH2)2(3-indolyl))]-NH2)	69.4%
